# targetDesc: T1, mouse big-ET-1 (mouse)
# T1 construct: also called mBig-ET-1
# T1 peptide: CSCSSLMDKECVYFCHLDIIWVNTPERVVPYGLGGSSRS
# assayRemarks: SPR (Biacore T200), 37 C, mAb capture, peptide analyte
readout: Kd (nM)
// note: answer is a bare numeric in nM

Please fill in: Kd reported for H4H6345P (antibody, V domains shown, Human IgG4 Fc (prefix H4H)) VH: EVQLVESGGGLVQPGGSLRLSCAASGFIFSSYAMTWVRQAPGKGLEWVSAISGSGVSTYYADSVKGRFTISRDNSKNTLYLQMNSLRIEDTAVYYCGKARTGTHAFDIWGQGTMVTVSS VL: DIQMTQSPSTLSASVGDRVTITCRASQSISRWLAWYQQKPGKAPKLLIYKASSLETGVPSRFSGSGSGTEFTLTISSLQPDDFGTYYCQQYNSYSSFGPGTKVDIK = 65
